Value source: the supplement of paper PMC6555819

Test system: RARb:RXRa (NR concentration 270 nM, RXRa partner concentration 90 nM)
assay.explanation: PBM binding z-score (relative to random genomic background probes); higher = stronger binding; sequences stand for … in GC…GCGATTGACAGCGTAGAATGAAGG

[
  {
    "seq.string": "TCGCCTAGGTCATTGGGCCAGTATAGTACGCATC",
    "PBM binding z-score": 3.66
  },
  {
    "seq.string": "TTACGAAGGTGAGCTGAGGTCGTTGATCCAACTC",
    "PBM binding z-score": 1.79
  },
  {
    "seq.string": "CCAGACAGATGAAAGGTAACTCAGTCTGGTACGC",
    "PBM binding z-score": 0.167
  },
  {
    "seq.string": "TCAGACAGGTGAAGGTAAATCAGGTACGCAGTCG",
    "PBM binding z-score": 1.4
  },
  {
    "seq.string": "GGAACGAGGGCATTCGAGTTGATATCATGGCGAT",
    "PBM binding z-score": 1.78
  },
  {
    "seq.string": "CTCGAAAGGTCGTGCTCAGCTGAGTATACCAAAC",
    "PBM binding z-score": 3.72
  },
  {
    "seq.string": "TCTATTAATTGAAGGGCAACCGACGAGTCCGTTT",
    "PBM binding z-score": 1.45
  },
  {
    "seq.string": "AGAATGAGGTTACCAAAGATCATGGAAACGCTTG",
    "PBM binding z-score": 2.11
  },
  {
    "seq.string": "CGTACTGGGCCAAGGTCATTGATCAGTCAAAGCA",
    "PBM binding z-score": 3.35
  },
  {
    "seq.string": "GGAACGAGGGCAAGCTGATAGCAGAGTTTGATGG",
    "PBM binding z-score": 2.46
  },
  {
    "seq.string": "CTAACTAGGTCAGAACAGGACAGTGAAGGATGAT",
    "PBM binding z-score": 2.94
  },
  {
    "seq.string": "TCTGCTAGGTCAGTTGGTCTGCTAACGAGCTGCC",
    "PBM binding z-score": 3.25
  },
  {
    "seq.string": "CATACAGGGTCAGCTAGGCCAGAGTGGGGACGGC",
    "PBM binding z-score": 4.03
  },
  {
    "seq.string": "TCATATAGGTAAATGCTGGGTGAAAGTCCGATCT",
    "PBM binding z-score": 0.495
  },
  {
    "seq.string": "TCTTGTAGATCAAAGGTTAAAAAAGCCGAAGCCT",
    "PBM binding z-score": 1.69
  },
  {
    "seq.string": "GTTATTAGTTGAAAGGGCAACCGAATGATTCTCG",
    "PBM binding z-score": 2.55
  },
  {
    "seq.string": "ACTAGCAGGCCTAGGGTCACTCAAGATTAGTCCG",
    "PBM binding z-score": 2.44
  },
  {
    "seq.string": "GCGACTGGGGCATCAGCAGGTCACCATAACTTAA",
    "PBM binding z-score": 2.53
  },
  {
    "seq.string": "ATATGTAGGTTAGCTGGGGACATTCAGACTAGGC",
    "PBM binding z-score": 1.22
  },
  {
    "seq.string": "CCTACTGGGCCAGCAGGTCATTGATATCAACGTT",
    "PBM binding z-score": 1.88
  },
  {
    "seq.string": "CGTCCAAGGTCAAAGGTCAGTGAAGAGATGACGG",
    "PBM binding z-score": 6.02
  },
  {
    "seq.string": "GCTGCTAGGTCAACTGATGGTCAGCTCAAGCTCG",
    "PBM binding z-score": 4.23
  },
  {
    "seq.string": "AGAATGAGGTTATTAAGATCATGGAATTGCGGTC",
    "PBM binding z-score": 1.36
  },
  {
    "seq.string": "TCATATAGGTAAACACGTGAAAGTCCGTAAGTTA",
    "PBM binding z-score": 0.364
  },
  {
    "seq.string": "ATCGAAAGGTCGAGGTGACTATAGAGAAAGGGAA",
    "PBM binding z-score": 4.21
  },
  {
    "seq.string": "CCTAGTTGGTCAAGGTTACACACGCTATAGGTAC",
    "PBM binding z-score": 1.99
  }
]

---

System: THRa:RXRa (NR concentration 90 nM, RXRa partner concentration 90 nM)
assay.explanation: PBM binding z-score (relative to random genomic background probes); higher = stronger binding; sequences stand for … in GC…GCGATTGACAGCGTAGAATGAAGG

[
  {
    "seq.string": "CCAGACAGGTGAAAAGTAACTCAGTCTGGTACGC",
    "PBM binding z-score": -0.0735
  },
  {
    "seq.string": "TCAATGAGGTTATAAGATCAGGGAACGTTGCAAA",
    "PBM binding z-score": 1.84
  },
  {
    "seq.string": "ATAAGTAGGTTAGCTGGGGTCATTCAGACTAGGC",
    "PBM binding z-score": 5.32
  },
  {
    "seq.string": "TGAATTAGGTTAAAGATCAGGGAACGTGGCGTCG",
    "PBM binding z-score": 0.806
  },
  {
    "seq.string": "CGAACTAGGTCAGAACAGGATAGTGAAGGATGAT",
    "PBM binding z-score": 2.39
  },
  {
    "seq.string": "TCATATAGGTAAATGCTAGGTGAAAGTACGATCT",
    "PBM binding z-score": 1.6
  },
  {
    "seq.string": "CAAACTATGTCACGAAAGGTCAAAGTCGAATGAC",
    "PBM binding z-score": 4.49
  },
  {
    "seq.string": "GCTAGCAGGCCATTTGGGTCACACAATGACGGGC",
    "PBM binding z-score": 2.03
  },
  {
    "seq.string": "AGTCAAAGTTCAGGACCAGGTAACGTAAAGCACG",
    "PBM binding z-score": 3.14
  },
  {
    "seq.string": "AGAACGAGGGCAATGTGTTGATAGCACGGGTGGC",
    "PBM binding z-score": 0.861
  },
  {
    "seq.string": "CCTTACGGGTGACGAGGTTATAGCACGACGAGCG",
    "PBM binding z-score": 1.33
  },
  {
    "seq.string": "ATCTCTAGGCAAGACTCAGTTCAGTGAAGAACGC",
    "PBM binding z-score": 0.205
  },
  {
    "seq.string": "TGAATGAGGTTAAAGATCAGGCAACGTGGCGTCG",
    "PBM binding z-score": 2.71
  },
  {
    "seq.string": "GCATATAGGTAATAAAAGGTGAAAGTCCGATTGT",
    "PBM binding z-score": 2.61
  },
  {
    "seq.string": "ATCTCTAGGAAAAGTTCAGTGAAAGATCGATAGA",
    "PBM binding z-score": 0.532
  },
  {
    "seq.string": "AGAATGAGGTTAGTAAGATCAGGGAATTGCGGTC",
    "PBM binding z-score": 1.33
  },
  {
    "seq.string": "CCTACTGGCCCATTCAGAGGTCATTGATCATATG",
    "PBM binding z-score": 3.04
  },
  {
    "seq.string": "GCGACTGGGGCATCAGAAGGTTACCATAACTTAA",
    "PBM binding z-score": 1.24
  },
  {
    "seq.string": "TCTAGATGGTCAAAGGTCACACACTCGAAATGCG",
    "PBM binding z-score": 3.96
  },
  {
    "seq.string": "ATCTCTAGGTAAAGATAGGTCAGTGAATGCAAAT",
    "PBM binding z-score": 2.02
  },
  {
    "seq.string": "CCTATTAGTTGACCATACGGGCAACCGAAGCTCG",
    "PBM binding z-score": 0.0977
  },
  {
    "seq.string": "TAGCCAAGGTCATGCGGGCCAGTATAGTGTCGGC",
    "PBM binding z-score": 4.14
  },
  {
    "seq.string": "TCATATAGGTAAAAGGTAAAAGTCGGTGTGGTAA",
    "PBM binding z-score": 0.886
  },
  {
    "seq.string": "CGTCCAAGGTCAGCAGCTCAGTGAAAGCGACGTG",
    "PBM binding z-score": 3.44
  },
  {
    "seq.string": "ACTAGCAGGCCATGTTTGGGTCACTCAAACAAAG",
    "PBM binding z-score": 2.24
  },
  {
    "seq.string": "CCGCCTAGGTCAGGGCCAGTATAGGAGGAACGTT",
    "PBM binding z-score": 2.2
  },
  {
    "seq.string": "TCTATTAGTTGTTTAGGGCAACCGAAACAGCGGA",
    "PBM binding z-score": 1.07
  },
  {
    "seq.string": "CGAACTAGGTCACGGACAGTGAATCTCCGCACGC",
    "PBM binding z-score": 3.53
  },
  {
    "seq.string": "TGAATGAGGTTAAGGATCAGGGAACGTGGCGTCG",
    "PBM binding z-score": 2.49
  },
  {
    "seq.string": "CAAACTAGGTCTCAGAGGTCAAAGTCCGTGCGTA",
    "PBM binding z-score": 3.63
  },
  {
    "seq.string": "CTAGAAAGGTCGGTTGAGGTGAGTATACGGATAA",
    "PBM binding z-score": 4.81
  },
  {
    "seq.string": "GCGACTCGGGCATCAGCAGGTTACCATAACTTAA",
    "PBM binding z-score": 0.266
  },
  {
    "seq.string": "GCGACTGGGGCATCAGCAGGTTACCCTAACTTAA",
    "PBM binding z-score": 1.29
  },
  {
    "seq.string": "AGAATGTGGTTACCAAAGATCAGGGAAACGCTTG",
    "PBM binding z-score": -0.05
  },
  {
    "seq.string": "GATACTGGGTCAAGGCCAGAGTACGCGTATTGAT",
    "PBM binding z-score": 2.09
  },
  {
    "seq.string": "CCTACTGGGCCATCAGGTCATTTATATCAACGTT",
    "PBM binding z-score": 3.14
  },
  {
    "seq.string": "GCGACTGGGGCAAAGCGGGTTACCATAAGGTTGG",
    "PBM binding z-score": 2.47
  },
  {
    "seq.string": "CCTACTGGGCCATCCGGTCATTGATATCAACGTT",
    "PBM binding z-score": 0.75
  },
  {
    "seq.string": "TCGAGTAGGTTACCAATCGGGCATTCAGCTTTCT",
    "PBM binding z-score": -0.223
  },
  {
    "seq.string": "CAAACTAGGTCAAAGGTAAAAGTCGAGCCAACCA",
    "PBM binding z-score": 3.26
  },
  {
    "seq.string": "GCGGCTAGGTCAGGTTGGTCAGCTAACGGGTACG",
    "PBM binding z-score": 1.85
  },
  {
    "seq.string": "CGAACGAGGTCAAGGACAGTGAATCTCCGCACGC",
    "PBM binding z-score": 4.43
  },
  {
    "seq.string": "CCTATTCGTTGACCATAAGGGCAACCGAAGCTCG",
    "PBM binding z-score": 1.85
  },
  {
    "seq.string": "CAAACTACGTCAAGAGGTCAAAGTCCGCTTCCCG",
    "PBM binding z-score": 3.72
  },
  {
    "seq.string": "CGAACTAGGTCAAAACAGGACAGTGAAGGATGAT",
    "PBM binding z-score": 4.13
  },
  {
    "seq.string": "GGAACGAGTGCAAAGTTGATAGCATCTGTCGACG",
    "PBM binding z-score": -0.385
  },
  {
    "seq.string": "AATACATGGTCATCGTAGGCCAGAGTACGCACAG",
    "PBM binding z-score": 1.25
  },
  {
    "seq.string": "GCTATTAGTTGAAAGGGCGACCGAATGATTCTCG",
    "PBM binding z-score": -0.155
  },
  {
    "seq.string": "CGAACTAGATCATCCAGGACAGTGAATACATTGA",
    "PBM binding z-score": 1.13
  },
  {
    "seq.string": "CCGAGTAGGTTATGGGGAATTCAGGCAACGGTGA",
    "PBM binding z-score": 0.724
  },
  {
    "seq.string": "AGAATGAGGTTATTAAGACCAGGGAATTGCGGTC",
    "PBM binding z-score": 2.17
  }
]
